All figures here come from patent US20240116985A1.

- procedureText: CHI Log D procedure
- Type: physicochemical
- measurementSetup: pH 7.4
Examples of compounds with documented CHI Log D follow.

Recorded results for 2 compounds are shown here.
CC(=O)N1CCC[C@]12CC=CCCCC1(CCCC=CCCCCCC[C@@](C)(C(=O)N[C@@H](Cc3ccsc3)C(=O)N[C@@H](Cc3csc4ccccc34)C(=O)N[C@@H](CCC(N)=O)C(N)=O)NC(=O)[C@H](CC(N)=O)NC(=O)[C@H](Cc3ccccc3)NC(=O)[C@H](C)NC(=O)[C@H](C)NC(=O)[C@H](CN(CC(=O)O)CC(F)(F)F)NC(=O)[C@H](CC(=O)O)NC1=O)NC(=O)[C@H](CC1CCCCC1)NC(=O)[C@H](CC(=O)O)NC2=O (stereo partly drawn) [I-707]: 2.963
CC(=O)N1CCC[C@]12CC=CCCCC1(CCCC=CCCCOC(=O)N3CC[C@@](C(=O)N[C@@H](Cc4ccsc4)C(=O)N[C@@H](Cc4csc5ccccc45)C(=O)N[C@@H](CCC(N)=O)C(N)=O)(C3)NC(=O)[C@H](CO)NC(=O)[C@H](Cc3ccccc3)NC(=O)[C@H](C)NC(=O)[C@H](C)NC(=O)[C@H](Cc3cccc(C(=O)O)c3)NC(=O)[C@H](CC(=O)O)NC1=O)NC(=O)[C@H](CC(C)(C)C)NC(=O)[C@H](CC(=O)O)NC2=O (stereo partly drawn) [I-978]: 1.745

# evaluate next
Suppose we examine the compound CC(=O)N1CCC[C@]12CC=CCCCC1(CCCC=CCCCCCC[C@@](C)(C(=O)N[C@@H](Cc3ccccc3)C(=O)N[C@@H](Cc3c[nH]c4ccccc34)C(=O)N[C@@H](CCC(N)=O)C(N)=O)NC(=O)[C@H](C(C)C)NC(=O)[C@H](Cc3ccccc3)NC(=O)[C@H](C)NC(=O)[C@H](C)NC(=O)[C@H](CCC(=O)O)NC(=O)[C@H](Cc3ccccn3)NC1=O)NC(=O)[C@H](C)NC(=O)[C@H](CC(=O)O)NC2=O (stereo partly drawn) ; what CHI Log D value has been reported? 3.044

* * *

- measurementTarget: full-length beta-Catenin (Uniprot ID P35222) (Homo sapiens, UniProt P35222)
- Construct: 10 nM full-length beta-Catenin (Uniprot ID P35222)
- Sequence (P35222 whole entry): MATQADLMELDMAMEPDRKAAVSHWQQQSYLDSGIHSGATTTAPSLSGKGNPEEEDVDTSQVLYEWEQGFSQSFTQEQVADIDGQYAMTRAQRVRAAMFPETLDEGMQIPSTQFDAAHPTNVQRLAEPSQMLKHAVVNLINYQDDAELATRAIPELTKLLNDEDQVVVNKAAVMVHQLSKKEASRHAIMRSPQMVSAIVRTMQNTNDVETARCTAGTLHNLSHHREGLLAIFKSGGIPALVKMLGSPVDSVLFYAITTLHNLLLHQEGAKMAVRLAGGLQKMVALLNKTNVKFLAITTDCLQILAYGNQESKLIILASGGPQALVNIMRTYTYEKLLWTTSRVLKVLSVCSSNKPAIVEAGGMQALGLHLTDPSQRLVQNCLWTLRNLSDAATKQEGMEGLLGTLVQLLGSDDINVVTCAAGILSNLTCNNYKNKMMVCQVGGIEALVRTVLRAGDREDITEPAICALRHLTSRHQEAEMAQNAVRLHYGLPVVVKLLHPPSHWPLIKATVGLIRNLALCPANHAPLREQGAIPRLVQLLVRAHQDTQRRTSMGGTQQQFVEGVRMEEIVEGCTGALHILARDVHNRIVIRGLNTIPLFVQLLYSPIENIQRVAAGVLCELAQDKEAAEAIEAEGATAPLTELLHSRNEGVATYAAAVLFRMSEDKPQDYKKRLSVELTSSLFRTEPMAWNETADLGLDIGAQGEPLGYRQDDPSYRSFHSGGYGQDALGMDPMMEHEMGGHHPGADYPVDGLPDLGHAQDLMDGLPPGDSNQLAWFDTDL
- procedureText: Fluorescence polarization IC50 (beta-catenin / 5FAM-TCF4 10-53 competition)
- Type: binding
- measurementSetup: fluorescence polarization; read-out: beta-Catenin FP IC50
Examples of compounds with documented IC50 follow.
The response must be a number in µM with no trailing unit.

CC(=O)N1CCC[C@]12CC=CCCCC1(CCCC=CCCCOC(=O)N3CC[C@@](C(=O)N[C@@H](Cc4ccccc4Cl)C(=O)N[C@@H](Cc4csc5ccccc45)C(=O)N[C@@H](C(N)=O)[C@H](C)O)(C3)NC(=O)[C@H](CC(C)C)NC(=O)[C@H](Cc3ccccc3)NC(=O)[C@H](C)NC(=O)[C@H](C)NC(=O)[C@H](CC(=O)O)NC(=O)[C@H](CC(=O)O)NC1=O)NC(=O)[C@H](CC1CCCCC1)NC(=O)[C@H](CC(=O)O)NC2=O (some centres unmarked) [I-1140]: 0.033

# evaluate next
Suppose we examine the compound CC(=O)N1CCC[C@]12CC=CCCCC1(CCCC=CCCCCCC[C@@](C)(C(=O)N[C@@H](Cc3ccccc3)C(=O)N[C@@H](Cc3csc4ccccc34)C(=O)N[C@@H](CCC(N)=O)C(N)=O)NC(=O)[C@H](CCC(N)=O)NC(=O)[C@H](Cc3ccccc3)NC(=O)[C@H](C)NC(=O)[C@H](C)NC(=O)[C@H](CCC(=O)O)NC(=O)[C@H](CC(=O)O)NC1=O)NC(=O)[C@H](CC(F)(F)F)NC(=O)[C@H](CC(=O)O)NC2=O (some centres unmarked) [I-501] ; what IC50 value has been reported? 0.094
